Listed here are molecules together with their documented IC50.
Subject Of Test: recombinant mouse sEH (MsEH) (Mus musculus, UniProt P34914)
Assay Comment: Inhibition of recombinant mouse sEH (MsEH)
Type: biochemical
Condition Description: Table 1; MsEH 0.13 μM; read-out: Mouse sEH IC50
Field: numeric (nM). Do not append units.

> print(dat)
                                 molecule                           subject.of.test  quantity.name  reported
1  O=C(NCC1CCCCC1)C1CCCCC1 [compound 374]  recombinant mouse sEH (MsEH) (Mus musculus, UniProt P34914)           IC50       250

(Q) Input Nc1ccc(CNC(=O)NC2CCCCC2)cc1 [compound 379] , output reported IC50.
(A) 50

(Q) Item CCCCCCc1ccc(NC(=O)NC2CCCCC2)cc1 [compound 501] : provide IC50
(A) 50

###

Subject Of Test: recombinant mouse sEH (MsEH) (Mus musculus)
Sequence (P34914 1-554): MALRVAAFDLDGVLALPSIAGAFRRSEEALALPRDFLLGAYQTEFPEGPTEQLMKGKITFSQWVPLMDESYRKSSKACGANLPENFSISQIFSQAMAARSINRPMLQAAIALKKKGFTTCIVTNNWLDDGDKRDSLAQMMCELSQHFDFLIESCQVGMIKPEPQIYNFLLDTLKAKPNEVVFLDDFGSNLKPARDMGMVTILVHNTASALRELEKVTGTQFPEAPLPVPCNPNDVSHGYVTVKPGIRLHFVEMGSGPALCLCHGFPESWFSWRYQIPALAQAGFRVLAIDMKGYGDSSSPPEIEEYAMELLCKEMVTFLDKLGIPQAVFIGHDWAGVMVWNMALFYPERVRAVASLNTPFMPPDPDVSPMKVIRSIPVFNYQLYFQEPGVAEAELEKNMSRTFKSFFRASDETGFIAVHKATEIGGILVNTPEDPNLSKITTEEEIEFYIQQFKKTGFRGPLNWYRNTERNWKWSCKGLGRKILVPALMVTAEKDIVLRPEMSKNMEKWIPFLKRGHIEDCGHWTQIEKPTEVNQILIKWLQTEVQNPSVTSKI
Assay Comment: Inhibition of recombinant mouse sEH (MsEH)
Format: biochemical
Condition Description: Table 1; MsEH 0.13 μM; read-out: Mouse sEH IC50
Quantity Name: IC50

These solved cases illustrate the format of a correct answer.
> print(dat)
                             compound  reported
1       CCCCCCCCCCCCCCNC(=O)NC1CCCCC1    110 nM
2           O=C(NC1CCCCCCC1)NC1CCCCC1     50 nM
3  O=C(Nc1ccc(OC(F)(F)F)cc1)NC1CCCCC1     50 nM

(Q) Specify measured IC50 for CC1CCC(NC(=O)NC2CCCCC2)CC1 (stereo not shown) .
(A) 50 nM

(Q) Let me know recorded IC50 for O=C(Nc1ccncc1)NC1CCCCC1 , thanks.
(A) 70 nM

(Q) Supply IC50 value. Item: Nc1ccc(NC(=O)NC2CCCCC2)cc1
(A) 170 nM

###

Entries and their measured pIC50 follow.
Subject Of Test: Human sEH (HsEH) (Homo sapiens, UniProt P34913)
Assay Comment: Inhibition of recombinant human sEH (HsEH)
Type: biochemical
Condition Description: Table 1; HsEH 0.26 μM
pIC50 field: float, defined as -log10 of concentration (mol/L).

> print(dat)
                                   compound  quantity.name  reported
1  COc1ccc(NC(=O)NC2CCCCC2)cc1 [compound 67]          pIC50      6.64
2  CC(C)(C)CC(C)(C)NC(=O)NC1C2CC3CC(C2)CC1C3 (stereo not shown) [compound 375]          pIC50      6.96
3      CCCCCCCCNC(=O)NC1CCC1 [compound 181]          pIC50      5.77
4  O=C(NCc1ccc(Cl)cc1)NC1CCCCC1 [compound 193]          pIC50      6.72
5  O=C(NC1CCCCC1)NC1C2CC3CC(C2)CC1C3 (stereo not shown) [compound 427]          pIC50      7.00
6      CCCCCCNC(=O)NC1CCCCC1 [compound 286]          pIC50      7.15

Let us move to another entry and its pIC50.
(Q) Look up Human sEH (HsEH) (Homo sapiens, UniProt P34913) data: pIC50 of O=C(NC1CCCCC1)OCCCCc1ccc([N+](=O)[O-])cc1 [compound 460] , then report it.
(A) 6.74

###

Subject Of Test: Human sEH (HsEH) (Homo sapiens, UniProt P34913)
Sequence (P34913 1-555): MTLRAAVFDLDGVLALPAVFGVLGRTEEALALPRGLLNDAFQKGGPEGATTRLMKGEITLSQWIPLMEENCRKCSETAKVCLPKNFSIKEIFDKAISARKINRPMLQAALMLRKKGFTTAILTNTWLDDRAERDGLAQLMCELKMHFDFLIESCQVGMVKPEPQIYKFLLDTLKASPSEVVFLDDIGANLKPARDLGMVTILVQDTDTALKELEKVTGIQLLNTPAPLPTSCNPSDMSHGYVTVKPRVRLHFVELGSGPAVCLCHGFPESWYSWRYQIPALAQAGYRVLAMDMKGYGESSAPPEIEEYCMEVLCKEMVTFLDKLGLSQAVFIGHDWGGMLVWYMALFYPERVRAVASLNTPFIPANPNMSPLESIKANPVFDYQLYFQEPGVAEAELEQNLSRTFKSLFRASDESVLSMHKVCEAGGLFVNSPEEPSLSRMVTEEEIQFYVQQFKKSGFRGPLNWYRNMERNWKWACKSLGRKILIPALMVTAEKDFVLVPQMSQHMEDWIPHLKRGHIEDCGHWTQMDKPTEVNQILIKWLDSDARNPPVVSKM
Assay Comment: Inhibition of recombinant human sEH (HsEH)
Assay type: biochemical
Condition Description: Table 1; HsEH 0.26 μM
Quantity Name: pIC50
// field semantics: pIC50 = negative decimal log of concentration (mol/L)

> print(dat)
                                   compound  quantity.name  reported
1  O=C(NCC1CCCCC1)Nc1cccc(Cl)c1 [compound 179]          pIC50      7.00
2  O=C(Nc1nnn[nH]1)NC1CCCCC1 [compound 533]          pIC50      7.00

Now for a further compound.
(Q) Report pIC50 from Human sEH (HsEH) (Homo sapiens, UniProt P34913) testing of O=C(NCCC1=CCCCC1)NC1CCCCC1 [compound 359]
(A) 7.00

###

Listed below: pIC50 values for each entry.
Subject Of Test: Human sEH (HsEH) (Homo sapiens)
Sequence (P34913 1-555): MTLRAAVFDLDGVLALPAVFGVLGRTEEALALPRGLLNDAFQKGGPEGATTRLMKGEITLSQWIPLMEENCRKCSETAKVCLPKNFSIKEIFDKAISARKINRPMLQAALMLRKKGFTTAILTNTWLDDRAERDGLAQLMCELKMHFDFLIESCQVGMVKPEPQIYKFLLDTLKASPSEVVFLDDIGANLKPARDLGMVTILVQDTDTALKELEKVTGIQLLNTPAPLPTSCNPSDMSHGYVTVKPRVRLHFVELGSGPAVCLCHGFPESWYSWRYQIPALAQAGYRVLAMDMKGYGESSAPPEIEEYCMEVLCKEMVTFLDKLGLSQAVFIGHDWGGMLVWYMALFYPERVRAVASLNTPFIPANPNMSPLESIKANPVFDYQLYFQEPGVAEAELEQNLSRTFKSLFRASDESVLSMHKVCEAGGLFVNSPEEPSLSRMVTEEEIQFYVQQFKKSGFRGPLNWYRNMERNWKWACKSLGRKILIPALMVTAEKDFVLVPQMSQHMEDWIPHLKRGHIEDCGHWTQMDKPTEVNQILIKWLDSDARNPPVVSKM
Assay Comment: Inhibition of recombinant human sEH (HsEH)
Assay type: biochemical
Condition Description: Table 1; HsEH 0.26 μM
Remember the convention: pIC50 equals -log10 of concentration in molar.

> print(dat)
                          compound                  subject.of.test  quantity.name  reported
1     N#Cc1ccc(NC(=O)NC2CCCCC2)cc1  Human sEH (HsEH) (Homo sapiens)          pIC50      7.00
2  CC(C)c1ccc(NC(=O)NCC2CCCCC2)cc1  Human sEH (HsEH) (Homo sapiens)          pIC50      7.00

(Q) Specify pIC50 for O=C(CC1CCCCC1)NC1CCCCC1 and stop.
(A) 6.38

(Q) Look up and state reported pIC50 for CC(NC(=O)NC1CCCCC1)C1C2CC3CC(C2)CC1C3 (stereo not drawn)
(A) 6.74

(Q) Hello, please tell me recorded pIC50 for this one: O=C(NC1CCCCC1)NC1CC2CCC1C2 (stereo not drawn)
(A) 7.00

(Q) Give recorded pIC50. CCCCCCCCNC(=O)NC1CCCCC1
(A) 6.92
